Ref: patent US20130259876A1

Give MFI for every item shown.
target: T1, HLA-B*2705 heavy chain with human beta 2 microglobulin on splenocytes of HLA-B27/hb2m transgenic mice (human); assay: flow cytometry, HLA-B27/hb2m transgenic mouse splenocytes, antibody 1 ug/ml
T1 construct: whole, on cells; also called TG; HLA-B*27+ transgenic splenocytes
I only need the number, in MFI, no unit after it.

INPUT: Need MFI of H4H2526P (antibody, V domains shown) VH: QVQLVESGGGVVQPGRSLRLSCAASGFTFSRFGMDWVRQAPGKGLEWVAVISYDGKNKLYADSVKGRFTISRDNSKNTLYMQMNSLRAEDTAVYYCAKEGDNWNFVGDSWGQGTLVTVSS VL: DIQMTQSPSSVSASVGDRVTITCRASQDISARLAWYQQKPGKAPKLLIYAASSLQSGVPSRFSGSGSGTDFTLTISSLEPEDFATYYCQQADSFPYTLGQGTKLEIK , thanks.
OUTPUT: 758

INPUT: Next up: H4H2524P (antibody, V domains shown) VH: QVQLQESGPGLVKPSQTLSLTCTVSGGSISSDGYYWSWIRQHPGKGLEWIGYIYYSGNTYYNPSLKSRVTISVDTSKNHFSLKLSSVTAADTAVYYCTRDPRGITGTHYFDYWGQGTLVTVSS VL: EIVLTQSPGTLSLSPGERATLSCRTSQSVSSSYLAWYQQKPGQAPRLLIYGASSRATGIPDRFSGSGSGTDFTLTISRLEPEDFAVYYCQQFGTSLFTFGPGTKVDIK
OUTPUT: 436
